B1: ZNF8 (parent)
chain: KPYTCSVCGKSFSRTTCLFLHLRT

# Variants of: B1
# PROCEDURE_DETAILS: protein stability index of a GFP-peptide fusion (GPS, HEK-293T) (PSI 1-6); higher = more stable;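 also: lentivirally expressed fusions sorted by FACS into six bins by GFP to DsRed ratio, PSI derived from sequencing read proportions per bin multiplied by bin number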
# EXPERIMENTAL_CONTEXT: c terminus: a fixed tail appended
In this section we review reported protein stability index values for a set of variants.
Respond numerically, and do not add a unit to the figure.

Noted for `S11M` : its protein stability index reads 1.76
